System: PC-3
Test: Growth inhibition of human PC3 cells incubated for 48 hrs by resazurin dye reduction based fluorimetric assay
Assay type: functional
Conditions: PC-3, 48 h
Catalogue of GI50 values
Please answer using a numeric value trailed by its unit.

C[C@@H]1O[C@@H](O[C@H]2CC[C@H](O[C@@]3(C)CC(=O)[C@]4(O)C5=C(C=C[C@]4(O)C3)C(=O)c3c(ccc([C@H]4C[C@@H](O)[C@H](O[C@H]6CC[C@H](O)[C@H](C)O6)[C@@H](C)O4)c3O)C5=O)O[C@H]2C)C=CC1=O; 148 nM
C[C@@H]1O[C@H]2O[C@@H]3[C@@H](C)O[C@@H](c4ccc5c(c4O)C(=O)C4=C(C5=O)[C@@]5(O)C(=O)C[C@](C)(O[C@H]6CC[C@H](O[C@H]7CC[C@H](O)[C@H](C)O7)[C@H](C)O6)C[C@@]5(O)C=C4)C[C@H]3O[C@H]2CC1=O; 179 nM
Cc1cc(O)c2c(c1)C[C@@H](O)C1=C2C(=O)c2c(O)ccc(O[C@H]3C[C@@H](O)[C@H](O[C@H]4C[C@@H](O[C@H]5CC[C@H](O[C@H]6C[C@@H](O)[C@H](O[C@H]7C[C@@H](O[C@H]8CC[C@H](O)[C@H](C)O8)[C@H](O)[C@@H](C)O7)[C@@H](C)O6)[C@H](C)O5)[C@H](O)[C@@H](C)O4)[C@@H](C)O3)c2C1=O; 550 nM
C[C@@H]1O[C@@H](O[C@H]2CC[C@H](O[C@@]3(C)CC(=O)[C@]4(O)C5=C(C=C[C@]4(O)C3)C(=O)c3c(ccc([C@H]4C[C@@H](O)[C@H](O[C@@H]6O[C@@H](C)C(=O)C=C6N)[C@@H](C)O4)c3O)C5=O)O[C@H]2C)C=CC1=O (relative stereo); 915 nM

# context switch: different compound, same GI50
Q: Enter reported GI50 observed with PC-3 for C[C@@H]1O[C@@H](O[C@H]2CC[C@H](O[C@@]3(C)CC(=O)[C@]4(O)C5=C(C=C[C@]4(O)C3)C(=O)c3c(ccc([C@H]4C[C@@H](O)[C@H](O)[C@@H](C)O4)c3O)C5=O)O[C@H]2C)C=CC1=O (relative stereo)
Result: 554 nM

----------
Test system: PC-3
Test: Growth inhibition of human PC3 cells incubated for 48 hrs by resazurin dye reduction based fluorimetric assay
Assay type: functional
Conditions: PC-3, 48 h
measurement.type: GI50 (nM)
Lab book: enter the figure in nM, no units written.

Q: Give its GI50 value. Item: C[C@@H]1O[C@@H](O[C@H]2CC[C@H](O[C@@]3(C)CC(=O)[C@]4(O)C5=C(C=C[C@]4(O)C3)C(=O)c3c(ccc([C@H]4C[C@H]6O[C@H]7CC(=O)[C@H](C)O[C@H]7O[C@@H]6[C@@H](C)O4)c3O)C5=O)O[C@H]2C)C(N)=CC1=O [SAQUAYAMYCIN H]
Result: 790

Q: And what about the compound C[C@@H]1O[C@@H](O[C@H]2[C@H](O)C[C@H](c3ccc4c(c3O)C(=O)C3=C(C4=O)[C@@]4(O)C(=O)C[C@](C)(O[C@H]5CC[C@H](O[C@H]6C=CC(=O)[C@H](C)O6)[C@H](C)O5)C[C@@]4(O)C=C3)O[C@@H]2C)C=CC1=O [SAQUAYAMYCINS A] ?
Result: 106

Q: And what about the compound C[C@@H]1O[C@H]2O[C@@H]3[C@@H](C)O[C@@H](c4ccc5c(c4O)C(=O)C4=C(C5=O)[C@@]5(O)C(=O)C[C@](C)(O)C[C@@]5(O)C=C4)C[C@H]3O[C@H]2CC1=O [SAQUAYAMYCIN B1] ?
Result: 1760

Q: And what about the compound C[C@@H]1O[C@@H](O[C@H]2CC[C@H](O[C@@]3(C)CC(=O)[C@]4(O)C5=C(C=C[C@]4(O)C3)C(=O)c3c(ccc([C@H]4C[C@H]6O[C@H]7CC(=O)[C@H](C)O[C@H]7O[C@@H]6[C@@H](C)O4)c3O)C5=O)O[C@H]2C)C=CC1=O [SAQUAYAMYCIN B] ?
Result: 74.5

Values from ChEMBL document CHEMBL2069249
